property-name: melting point

Solved entries (count: 6):
{"compound": "O=Cc1ccc(-c2ccc(F)cc2)o1", "reading": "79 to 81 °C"}
{"compound": "O=C(O)c1cncs1", "reading": "169 to 171 °C"}
{"compound": "CCC(C)[C@H](NC(=O)N1CCCC1)C(=O)O (stereo partly drawn)", "reading": "147 to 149 °C"}
{"compound": "OC(CNCc1ccccc1)c1ccsc1 (stereo not drawn)", "reading": "78 to 80 °C"}
{"compound": "CC(C)CNC(=O)c1ccc(N)cc1", "reading": "119 to 121 °C"}
{"compound": "CC(C)Oc1ccc(Cl)cc1C(=O)O", "reading": "83 to 85 °C"}

The compound identified as NC(=O)c1c[nH]c(C(=O)O)c1 registered its melting point at 264 to 266 °C

Short answer for Nc1nc(-c2cccc(Oc3ccccc3)c2)ns1 : melting point was 138 to 140 °C

Please fill in: melting point reported for CCOc1ccc(N)cc1S(=O)(=O)N(C)C = < 17 °C

Lab book: melting point of Nc1ccc(C(=O)N2CCCc3ccccc32)cc1 noted as 210 to 212 °C

The reported melting point of the compound NC(CC(=O)NC1CCCCC1)=NO was 167 to 169 °C

Data point: CC(C)(C)n1cc(C#N)cc1NC(=O)OCC(F)(F)F ; melting point = 147 to 149 °C

// melting point value for O=C(CCl)c1ccc(NC(=O)c2ccccc2)cc1 : 140 to 142 °C

# melting point (compound: Sc1nc(C2CC2)nc2ccccc12 ) is 219 to 221 °C

melting point reported for this compound Cc1cc(=O)c(C(=O)O)nn1-c1ccccc1 : 167 to 169 °C

So for COc1ccc(NC(=O)C(=O)O)cc1 , the logged melting point turned out to be 206 to 208 °C

Value of measured melting point for the entry N#CCS(=O)(=O)c1cc(Br)ccc1Br : 134 to 136 °C

Input NS(=O)(=O)c1ccc2c(c1)C(=O)C(=O)N2 . Output melting point: 258 to 260 °C

Record CN(C)c1ccnc(C(=O)O)c1 , field melting point: 234 to 236 °C

Per the records, this compound ( CN(C)C(N)=S ) has melting point equal to 144 to 146 °C

// sample NS(=O)(=O)c1cc(C(F)(F)F)ccc1Cl , its melting point was 154 to 156 °C

====

property-name: melting point

The examples below pair each entry with its known result.
{"compound": "COc1ccccc1C(O)c1ccccn1 (centres undefined)", "melting point": "57 to 59 °C"}
{"compound": "C#Cc1cccc(OC)n1", "melting point": "47 to 49 °C"}
{"compound": "O=C(c1ccc(F)cc1)c1cnc2ccccc2c1", "melting point": "89 to 91 °C"}
{"compound": "CCCc1cc(C(=O)O)[nH]n1", "melting point": "169 to 171 °C"}
{"compound": "O=C1Nc2ccc(S(=O)(=O)Cl)c3cccc1c23", "melting point": "197 to 199 °C"}

Shifting focus to the compound that follows.
For record CNC(=O)c1cc(Oc2cccc(O)c2)ccn1 the listed melting point is 124 to 126 °C

====

Measured melting point values are reported for all entries that follow.

Sample records with melting point:
{"compound": "Cn1cc2c(cc1=O)CCN2", "melting point": "204 to 206 °C"}
{"compound": "O=C(O)c1cnc2ccc(Br)cn2c1=O", "melting point": "218 to 220 °C"}

Note to self: melting point recorded for CC(C)Oc1cc(Br)ccc1C(=O)O was 86 to 88 °C

Lab book: melting point of COc1ccc([N+](=O)[O-])cc1CCl noted as 78 to 80 °C
